Listing of recorded Activity by entry.
Experiment: Cytotoxicity against HEK293H cells assessed as cell viability at 100 uM after 24 hrs by CellTiter-Glo assay
Assay type: cell-based
Conditions: human
Reply numerically in %, unit not repeated.

Item COC(=O)CCCN1C(=O)NC(c2ccc(Cl)cc2Cl)C(C(=O)OCc2ccccc2)=C1C (centres undefined) : provide Activity 82

Item CC1=C(C(=O)OCc2ccccc2)C(c2ccc(Cl)cc2Cl)NC(=O)N1CCCC(=O)OCc1ccccn1 (centres undefined) : provide Activity 73

Item C/C=C(/C)C(=O)O[C@H]1C(C)=C2[C@H]([C@@H]1OC(=O)CCCCCCC)[C@@](C)(OC(C)=O)C[C@H](OC(=O)CCC)[C@@]1(O)[C@H]2OC(=O)[C@@]1(C)O : provide Activity 0

Item CC1=C(C(=O)OCc2ccccc2)C(c2ccc(Cl)cc2Cl)NC(=O)N1CCCC(=O)OCC1CC1 (centres undefined) : provide Activity 75

Item CC1=C(C(=O)OCc2ccccc2)C(c2ccc(Cl)cc2Cl)NC(=O)N1CCCC(=O)OCc1ccc2ccccc2n1 (centres undefined) : provide Activity 93

Item CC1=C(C(=O)OCc2ccccc2)C(c2ccc(Cl)cc2Cl)NC(=O)N1CCCC(=O)OCc1ccccc1 (centres undefined) : provide Activity 85

Item CC1=C(C(=O)OCc2ccccc2)C(c2ccc(Cl)cc2Cl)NC(=O)N1CCCCC(=O)O (centres undefined) : provide Activity 109

Item CC1=C(C(=O)OCc2ccccc2)C(c2ccc(Cl)cc2Cl)NC(=O)N1CCCC(=O)OCc1ccccc1F (centres undefined) : provide Activity 108

Item COCCOC(=O)CCCN1C(=O)NC(c2ccc(Cl)cc2Cl)C(C(=O)OCc2ccccc2)=C1C (centres undefined) : provide Activity 65

* * *

Test system: MCF7
Test: Cytotoxicity against human MCF7 cells assessed as cell viability at 100 uM after 24 hrs by CellTiter-Glo assay
Type: cell-based
Details: mcf7, 24 h
recorded_endpoint: Activity (%)
Reply numerically in %, unit not repeated.

> print(dat)
                                   compound  subject.of.test  recorded.endpoint  unit.of.measurement  result.number
1  CC1=C(C(=O)OCc2ccccc2)C(c2ccc(Cl)cc2Cl)NC(=O)N1CCCC(=O)OCC1CC1 (stereo not given)             MCF7           Activity                    %             85

Give reported Activity for CC1=C(C(=O)OCc2ccccc2)C(c2ccc(Cl)cc2Cl)NC(=O)N1CCCC(=O)OCC#N (stereo not given) (MCF7) 98

Give reported Activity for C/C=C(/C)C(=O)O[C@H]1C(C)=C2[C@H]([C@@H]1OC(=O)CCCCCCC)[C@@](C)(OC(C)=O)C[C@H](OC(=O)CCC)[C@@]1(O)[C@H]2OC(=O)[C@@]1(C)O (MCF7) 0

Give reported Activity for COCCOC(=O)CCCN1C(=O)NC(c2ccc(Cl)cc2Cl)C(C(=O)OCc2ccccc2)=C1C (stereo not given) (MCF7) 89

Give reported Activity for C/C=C/COC(=O)CCCN1C(=O)NC(c2ccc(Cl)cc2Cl)C(C(=O)OCc2ccccc2)=C1C (stereo not given) (MCF7) 83

* * *

Test system: MCF7
Test: Cytotoxicity against human MCF7 cells assessed as cell viability at 100 uM after 24 hrs by CellTiter-Glo assay
Type: cell-based
Conditions: mcf7, 24 h
recorded_endpoint: Activity (%)
Reply numerically in %, unit not repeated.

> print(dat)
                                   compound  result.number
1  COC(=O)CCCCN1C(=O)NC(c2ccc(Cl)cc2Cl)C(C(=O)OCc2ccccc2)=C1C (centres undefined)             82
2  CC1=C(C(=O)OCc2ccccc2)C(c2ccc(Cl)cc2Cl)NC(=O)N1CCCC(=O)OCc1ccccc1 (centres undefined)             94
3  CC1=C(C(=O)OCc2ccccc2)C(c2ccc(Cl)cc2Cl)NC(=O)N1CCCC(=O)OCc1ccccn1 (centres undefined)             60
4  CC1=C(C(=O)OCc2ccccc2)C(c2ccc(Cl)cc2Cl)NC(=O)N1CCCCC(=O)O (centres undefined)            113
5  CC1=C(C(=O)OCc2ccccc2)C(c2ccc(Cl)cc2Cl)NC(=O)N1CCCC(=O)O (centres undefined)            110
6  COC(=O)CCCN1C(=O)NC(c2ccc(Cl)cc2Cl)C(C(=O)OCc2ccccc2)=C1C (centres undefined)             90
7  CC1=C(C(=O)OCc2ccccc2)C(c2ccc(Cl)cc2Cl)NC(=O)N1CCCC(=O)OCc1ccc2ccccc2n1 (centres undefined)             99
8  CC1=C(C(=O)OCc2ccccc2)C(c2ccc(Cl)cc2Cl)NC(=O)N1CCCC(=O)OCc1ccccc1F (centres undefined)            106

Give reported Activity for CC1=C(C(=O)OCc2ccccc2)C(c2ccc(Cl)cc2Cl)NC(=O)N1CCCC(=O)OCCN1CCOCC1 (centres undefined) (MCF7) 72

src = ChEMBL document CHEMBL4371050
